Target: T1, human α-CGRP 1-37 (WT) (human, C-terminal amide; N-terminal biotin when captured on the SA chip; 125I-labelled in the radioligand assay)
T1 construct: also called α-human
T1 peptide: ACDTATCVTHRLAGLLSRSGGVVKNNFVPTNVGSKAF
Experiment: Biacore, 37°C, Fab over CGRP on SA chip
parameter: koff (s⁻¹)
The reply should contain only the number, in s⁻¹.

The examples below pair each entry with its known result.
{"binder": "G1 variant M2 Fab (Fab, V domains shown, Fab; constant domains as m1) VH: EVQLVESGGGLVQPGGSLRLSCAASGFTFSNYWISWVRQAPGKGLEWVAEIRSESDASATHYAEAVKGRFTISRDNAKNSLYLQMNSLRAEDTAVYYCARYFDYGLAIQNYWGQGTLVTVSS VL: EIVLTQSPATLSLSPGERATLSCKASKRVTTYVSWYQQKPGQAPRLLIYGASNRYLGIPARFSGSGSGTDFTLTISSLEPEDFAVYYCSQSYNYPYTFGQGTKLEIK", "koff / s⁻¹": 0.00031}
{"binder": "G1 variant M3 Fab (Fab, V domains shown, Fab; constant domains as m1) VH: EVQLVESGGGLVQPGGSLRLSCAASGFTFSNYWISWVRQAPGKGLEWVAEIRSESDASATHYAEAVKGRFTISRDNAKNSLYLQMNSLRAEDTAVYYCASYFDYGLAIQNYWGQGTLVTVSS VL: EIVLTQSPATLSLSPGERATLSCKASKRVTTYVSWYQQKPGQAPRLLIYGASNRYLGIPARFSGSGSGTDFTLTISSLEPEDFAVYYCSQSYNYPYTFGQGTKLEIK", "koff / s⁻¹": 0.00021}

Let's switch to this binder now.
Record summary for G1 variant M58 Fab (Fab, V domains shown, Fab; constant domains as m1) VH: EVQLVESGGGLVQPGGSLRLSCAASGFTFSNYWISWVRQAPGKGLEWVAEIRSKSDNIATFYAEAVKGRFTISRDNAKNSLYLQMNSLRAEDTAVYYCTVYFDYGLAIQNYWGQGTLVTVSS VL: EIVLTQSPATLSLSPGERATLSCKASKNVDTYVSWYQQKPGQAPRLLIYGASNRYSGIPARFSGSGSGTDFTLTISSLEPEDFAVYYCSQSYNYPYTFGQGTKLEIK : reported koff = 0.00195

# credit: patent US20190071490A1
